All values here come from ChEMBL document CHEMBL5050844.

Kindly state fold change (FC) for each of the entries shown.
# METHOD: Induction of anti-CD3/CD28 antibodies-stimulated human T cell activation at 1 uM assessed fold increase in CD25 expression measured by ELISA assay
# Type: functional, T cell line
Reply: number alone, nothing else.

Exercise: Return fold change (FC) (reported value) for this compound: `Cn1cnnc1[C@@H]1C[C@@H]1c1cccc(N2Cc3c(cc(CN4CC[C@H](F)C4)cc3C(F)(F)F)C2=O)c1`
Solution: 1.31

Exercise: Return fold change (FC) (reported value) for this compound: CC(c1cc2c(c(C(F)(F)F)c1)CN(c1cccc(C3(Cc4nncn4C)COC3)c1)C2=O)N1CC(S(C)(=O)=O)C1 (configuration not stated)
Solution: 1.01

Exercise: Return fold change (FC) (reported value) for this compound: `C[C@H](Cc1nncn1C)c1cccc(N2Cc3c(cc(-c4ccn[nH]4)cc3C(F)(F)F)C2=O)c1`
Solution: 1.31

Exercise: Return fold change (FC) (reported value) for this compound: `C[C@H](Cc1nncn1C)c1cccc(N2Cc3c(cc(CN4C[C@@H](O)[C@H](F)C4)cc3C(F)(F)F)C2=O)c1`
Solution: 1.31

Exercise: Return fold change (FC) (reported value) for this compound: `C[C@H]1CN(C)CCN1c1cc2c(c(C(F)(F)F)c1)CN(c1cccc([C@@](C)(F)C(F)(F)c3nncn3C)c1)C2=O`
Solution: 1.01

Exercise: Return fold change (FC) (reported value) for this compound: `C[C@H](Cc1nncn1C)c1cccc(NC(=O)c2coc(C(F)(F)F)n2)c1`
Solution: 1.01

Exercise: Return fold change (FC) (reported value) for this compound: `C[C@H](Cc1nncn1C)c1cc(NC2COC2)nc(N2Cc3c(cccc3C(F)(F)F)C2=O)c1`
Solution: 1.01

Exercise: Return fold change (FC) (reported value) for this compound: CC(O)c1cc2c(c(C(F)(F)F)c1)CN(c1cccc([C@@](C)(F)C(F)(F)c3nncn3C)c1)C2=O (some centres not stated)
Solution: 1.01

Exercise: Return fold change (FC) (reported value) for this compound: `C[C@H](Cc1nncn1C)c1cccc(N2Cc3c(cc([C@@H]4CCCNC4)cc3C(F)(F)F)C2=O)c1`
Solution: 1.31

Exercise: Return fold change (FC) (reported value) for this compound: `CCN1CCN(Cc2cc3c(c(C(F)(F)F)c2)CN(c2cccc(C4(Cc5nncn5C)COC4)c2)C3=O)CC1`
Solution: 1.31

Exercise: Return fold change (FC) (reported value) for this compound: `Cn1cnnc1C[C@]1(c2cccc(N3Cc4c(cccc4C(F)(F)F)C3=O)c2)C[C@H](CO)C1`
Solution: 1.51

Exercise: Return fold change (FC) (reported value) for this compound: `Cn1cnnc1CC1(c2cccc(N3Cc4c(cc(CN5CCCC(F)(F)C5)cc4C(F)(F)F)C3=O)c2)COC1`
Solution: 1.51

Exercise: Return fold change (FC) (reported value) for this compound: `C[C@@H](c1cc2c(c(C(F)(F)F)c1)CN(c1cccc(C3(Cc4nncn4C)COC3)c1)C2=O)N1CC(F)C1`
Solution: 1.51

Exercise: Return fold change (FC) (reported value) for this compound: `CN1CCN(c2cc3c(c(C(F)(F)F)c2)CN(c2cccc([C@@](C)(F)C(F)(F)c4nncn4C)c2)C3=O)CC1`
Solution: 1.01

Exercise: Return fold change (FC) (reported value) for this compound: `Cn1cnnc1[C@@H](F)C1(c2cccc(N3Cc4c(cc(CN5CCCCC5)cc4C(F)(F)F)C3=O)c2)COC1`
Solution: 1.51

Exercise: Return fold change (FC) (reported value) for this compound: `C[C@H](Cc1nncn1C)c1cccc(NC(=O)c2cc(C(F)(F)F)n[nH]2)c1`
Solution: 1.01

Exercise: Return fold change (FC) (reported value) for this compound: `C[C@H](Sc1nncn1C)c1cccc(N2Cc3c(ccnc3Cl)C2=O)c1`
Solution: 1.01
